Protein target, amino acids: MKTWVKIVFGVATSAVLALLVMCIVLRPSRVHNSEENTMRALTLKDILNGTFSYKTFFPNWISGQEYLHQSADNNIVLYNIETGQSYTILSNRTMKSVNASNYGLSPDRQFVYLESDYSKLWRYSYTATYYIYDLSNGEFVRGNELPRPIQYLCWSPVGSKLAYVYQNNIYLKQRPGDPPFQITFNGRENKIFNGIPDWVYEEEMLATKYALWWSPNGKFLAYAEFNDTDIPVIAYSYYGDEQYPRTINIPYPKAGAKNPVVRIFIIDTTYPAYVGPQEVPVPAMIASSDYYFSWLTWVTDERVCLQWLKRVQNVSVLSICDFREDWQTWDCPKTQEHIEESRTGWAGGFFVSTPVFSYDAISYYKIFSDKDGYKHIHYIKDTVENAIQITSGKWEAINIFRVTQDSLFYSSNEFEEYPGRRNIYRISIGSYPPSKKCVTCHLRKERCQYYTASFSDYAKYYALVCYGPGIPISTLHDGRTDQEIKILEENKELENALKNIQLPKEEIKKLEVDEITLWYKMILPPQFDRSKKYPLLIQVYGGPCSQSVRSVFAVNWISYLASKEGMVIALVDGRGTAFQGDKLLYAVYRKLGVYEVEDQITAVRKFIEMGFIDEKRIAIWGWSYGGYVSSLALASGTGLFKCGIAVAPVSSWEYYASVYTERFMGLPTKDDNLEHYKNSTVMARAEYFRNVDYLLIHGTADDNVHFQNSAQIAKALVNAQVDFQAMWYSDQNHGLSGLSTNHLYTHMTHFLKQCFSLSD
measured metric: IC50 (µM)
Respond with the bare value in µM.

The compound `O=C(NCC(=O)N1CCSC1)c1ccccc1` showed IC50 equal to 14
